# measurement-target: Muscarinic acetylcholine receptor M1 (Rattus norvegicus, UniProt P08482)
# Sequence (P08482 whole entry): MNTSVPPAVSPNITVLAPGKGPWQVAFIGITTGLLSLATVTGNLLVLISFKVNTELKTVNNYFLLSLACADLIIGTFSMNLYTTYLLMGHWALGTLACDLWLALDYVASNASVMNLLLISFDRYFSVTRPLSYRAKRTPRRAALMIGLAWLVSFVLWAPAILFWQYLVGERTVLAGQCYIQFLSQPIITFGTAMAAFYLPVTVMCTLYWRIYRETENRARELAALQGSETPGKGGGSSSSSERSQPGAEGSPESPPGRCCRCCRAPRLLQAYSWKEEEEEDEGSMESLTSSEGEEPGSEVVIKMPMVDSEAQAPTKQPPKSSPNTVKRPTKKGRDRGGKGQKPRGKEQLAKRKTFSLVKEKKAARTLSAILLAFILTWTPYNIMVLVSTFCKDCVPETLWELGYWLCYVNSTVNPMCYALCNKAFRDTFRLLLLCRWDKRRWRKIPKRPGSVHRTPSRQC
# protocol-description: Displacement of [3H]Quinuclidinyl benzilate from muscarinic M1 receptor in Wistar rat cortex synaptosomal membrane
measurement-label: Ki (µM)
Number only, in µM; omit the unit.

Example entries begin here.
compound | measurement-target | Ki [µM]
CN1CCC=C(C2CN(S(=O)(=O)c3ccccc3[N+](=O)[O-])CCO2)C1 (stereo not given) | Muscarinic acetylcholine receptor M1 (Rattus norvegicus, UniProt P08482) | 96
CN1CCC=C(C2CN(S(=O)(=O)c3ccccc3)CCO2)C1 (stereo not given) | Muscarinic acetylcholine receptor M1 (Rattus norvegicus, UniProt P08482) | 27
CN1CCC=C(C2CN(S(=O)(=O)c3cc(Cl)ccc3Cl)CCO2)C1 (stereo not given) | Muscarinic acetylcholine receptor M1 (Rattus norvegicus, UniProt P08482) | 35

Value lookup for Ki; key = CN1CCC=C(C2CN(S(=O)(=O)c3ccc(Cl)cc3)CCO2)C1 (stereo not given) 0.26

Next compound up: CN1CCC=C(C2CN(S(=O)(=O)c3ccc(C(C)(C)C)cc3)CCO2)C1 (stereo not given) 4

* * *

# UniProtKB P08482: Ki values follow
Answer format: numeric, µM implied, no suffix.

molecule | measurement-target | Ki (µM)
Cc1ccc(S(=O)(=O)N2CCOC(C3=CCCN(C)C3)C2)cc1 (stereo not drawn) | UniProtKB P08482 | 14
CN1CCC=C(C2CN(S(=O)(=O)c3ccc([N+](=O)[O-])cc3)CCO2)C1 (stereo not drawn) | UniProtKB P08482 | 64

# get_value(readout= Ki, system= UniProtKB P08482) for CN1CCC=C(C2CN(S(=O)(=O)c3cccc([N+](=O)[O-])c3)CCO2)C1 (stereo not drawn) 62

* * *

# measurement-target: UniProtKB P08482
measurement-label: pIC50
Keep in mind that pIC50 stands for -log10 of concentration in molar terms.

compound | measurement-label | assay-result
CN1CCC=C(C2CN(S(=O)(=O)c3ccc([N+](=O)[O-])cc3)CCO2)C1 (stereo not drawn) | pIC50 | 3.68
Cc1ccc(S(=O)(=O)N2CCOC(C3=CCCN(C)C3)C2)cc1 (stereo not drawn) | pIC50 | 4.21
CN1CCC=C(C2CN(S(=O)(=O)c3ccc(C(C)(C)C)cc3)CCO2)C1 (stereo not drawn) | pIC50 | 4.72

Report pIC50 for CN1CCC=C(C2CN(S(=O)(=O)c3ccccc3)CCO2)C1 (stereo not drawn) please. 4.05

Another compound to look at: CN1CCC=C(C2CN(S(=O)(=O)c3ccccc3[N+](=O)[O-])CCO2)C1 (stereo not drawn) 3.50

* * *

Below are compounds with their IC50 as measured on Muscarinic acetylcholine receptor M1 (Rattus norvegicus).
Expressed in µM, but write only the number.

compound | IC50, µM
CN1CCC=C(C2CN(S(=O)(=O)c3ccc(Cl)cc3)CCO2)C1 (stereo not drawn) | 0.92
CN1CCC=C(C2CN(S(=O)(=O)c3cccc([N+](=O)[O-])c3)CCO2)C1 (stereo not drawn) | 201

Turning now to a further compound:
Report IC50 for CN1CCC=C(C2CN(S(=O)(=O)c3cc(Cl)ccc3Cl)CCO2)C1 (stereo not drawn) tested on Muscarinic acetylcholine receptor M1 (Rattus norvegicus). 115
